experiment: NCI Yeast Anticancer Drug Screen. Data for the sgs1 strain (AID 173);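 also: 0% = growth of vehicle-only control cultures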; details: S. cerevisiae sgs1 mutant, at 3.7 µM, stronger effect = higher value
The panel holds about 79,000 compounds, 15% with a hit somewhere; the sample as a whole holds those more often.
propertyName: growth inhibition (%)

>>> print(df.to_string())
                                    compound  numericresult
 0  CC(=O)OCC(=O)C1(O)CCC2C3CCC4CCCCC4(C)C3CCC21C (configuration not stated)            -16
 1                  CC(=O)Nc1ccc(SC(C)=O)cc1             -9
 2  CCC#CCCCOC(=O)c1cc([N+](=O)[O-])cc([N+](=O)[O-])c1              3
 3  O=C(O)C1CCCCC1c1c2ccc(=O)c(O)c-2oc2c(O)c(O)ccc12 (configuration not stated)            -20
 4                     Nc1nc(Cl)c(Cl)c(Cl)n1             14
 5  CCC(C(=O)O)C1=C(c2ccccc2)CCc2ccccc21 (configuration not stated)             24
 6  CC/C(=C(\c1ccccc1)c1ccc(OCCN(C)C)cc1)c1ccccc1              1
 7      CN(C)c1ccc(Sc2ccc3nc(N)nc(N)c3c2)cc1             21
 8        Cc1ccc(CCC2=CCCc3c2ccc2ccccc32)cc1             -4
 9            O=CNc1ccc2c(c1)C(=O)c1ccccc1-2              0
10  Cn1c(N)nc(-c2ccc(Cl)cc2)c1SSc1c(-c2ccc(Cl)cc2)nc(N)n1C              6
11  OCC(Cn1cncn1)(c1ccc(F)cc1F)n1cncn1 (configuration not stated)             67
12                      CCCCCCCCCCCCCCCCCCNC            -27
13  CN(C)CCn1c2c3ccccc3ccc2c2oc(=O)c3ccccc3c21             16
14          S=C(N/N=C/c1ccccn1)Nc1ccc(Cl)cc1             -4
15              COc1ccc2c(c1)C(=O)c1ccccc1C2             -4
16  COC1=CC(=O)C(C2(OC(C)C)OC(=O)C(Cl)=C2Cl)=CC1=O (configuration not stated)             37
17  O=C1OC(CCl)CN1/N=C/c1ccc([N+](=O)[O-])o1 (configuration not stated)              9
18         COC(=O)CSSCc1ccc([N+](=O)[O-])cc1            -24
19             NNC(=O)CCc1ccc2ccc3ccccc3c2c1              8
20  C(=C\c1ccccc1)/COc1ccccc1C(N1CCOCC1)n1nc2ccccc2n1 (configuration not stated)             22
21  c1ccc(-c2ccnc3c2ccc2c(-c4ccccc4)ccnc23)cc1             11
22                O=C(Nc1ccc(Cl)cc1)OCC#CCCl             96
23  CC1C(NNc2ccccc2)Oc2cc3c(cc2C1c1ccccc1O)OCO3 (configuration not stated)             99
24  COC(=O)CCNc1c2ccccc2nc2cccc([N+](=O)[O-])c12             96
25  O=[N+]([O-])c1cc2no[n+]([O-])c2cc1N1CCCCC1             72
26  COC(=O)C1=C(C)NC(C)=C(C(=O)OC)C1c1cccc(/[N+]([O-])=C/c2ccccc2)c1              5
27            CN(C)c1nc2sc3c(c2c(=O)o1)CCCC3             -4
28  COC(=O)C1=C(C)NC(C)=C(C(=O)OCCCN2CCC(c3ccccc3)(c3ccccc3)CC2)C1c1cccc([N+](=O)[O-])c1 (configuration not stated)             23
29  CC(=O)Nc1ccc2c(c1)C(=Nc1ccc(C(=O)O)cc1)c1ccccc1-2              2
30  CCNc1nnc(CSc2nc(-c3ccccc3)c(-c3ccccc3)[nH]2)s1             18
31       Brc1ccc(-c2cc3c(cc2C2SCCS2)OCO3)cc1              9
32                Cc1ccc(S/N=C\c2ccccc2O)cc1              7
33  CCCCCCCCCCCCCCCCCCN(C)CC(COP(=O)([O-])OCC[N+](C)(C)C)OC (configuration not stated)             -1
34               CC1=NN(c2cccc(Cl)c2)C(=O)C1            -22
35           O=C(/C=C\c1ccc(Cl)cc1Cl)c1cccs1              1
36  CC[n+]1ccc2c(C)c3[nH]c4ccc(O)cc4c3c(C)c2c1             38
37  CCOP(=O)(OCC)C(Cc1ccccc1)N=C(c1ccccc1)c1ccccc1 (configuration not stated)             10
38  CCC[CH2][Ge]([CH2]CCC)([CH2]CCC)[O]C(=O)C(OC)c1ccccc1 (configuration not stated)              1
39  O=C(O)c1cccc(-c2c3ccc(=O)cc-3oc3cc(O)ccc23)c1             35
40          CCN(CC)C(C)(C)C(=O)/C=C/c1ccccc1              1
41                        Cc1ccc2ccc(O)cc2c1            -14
